# Study target: hERG (Kv11.1, KCNH2) (Homo sapiens, UniProt Q12809)
# Sequence (Q12809 whole entry): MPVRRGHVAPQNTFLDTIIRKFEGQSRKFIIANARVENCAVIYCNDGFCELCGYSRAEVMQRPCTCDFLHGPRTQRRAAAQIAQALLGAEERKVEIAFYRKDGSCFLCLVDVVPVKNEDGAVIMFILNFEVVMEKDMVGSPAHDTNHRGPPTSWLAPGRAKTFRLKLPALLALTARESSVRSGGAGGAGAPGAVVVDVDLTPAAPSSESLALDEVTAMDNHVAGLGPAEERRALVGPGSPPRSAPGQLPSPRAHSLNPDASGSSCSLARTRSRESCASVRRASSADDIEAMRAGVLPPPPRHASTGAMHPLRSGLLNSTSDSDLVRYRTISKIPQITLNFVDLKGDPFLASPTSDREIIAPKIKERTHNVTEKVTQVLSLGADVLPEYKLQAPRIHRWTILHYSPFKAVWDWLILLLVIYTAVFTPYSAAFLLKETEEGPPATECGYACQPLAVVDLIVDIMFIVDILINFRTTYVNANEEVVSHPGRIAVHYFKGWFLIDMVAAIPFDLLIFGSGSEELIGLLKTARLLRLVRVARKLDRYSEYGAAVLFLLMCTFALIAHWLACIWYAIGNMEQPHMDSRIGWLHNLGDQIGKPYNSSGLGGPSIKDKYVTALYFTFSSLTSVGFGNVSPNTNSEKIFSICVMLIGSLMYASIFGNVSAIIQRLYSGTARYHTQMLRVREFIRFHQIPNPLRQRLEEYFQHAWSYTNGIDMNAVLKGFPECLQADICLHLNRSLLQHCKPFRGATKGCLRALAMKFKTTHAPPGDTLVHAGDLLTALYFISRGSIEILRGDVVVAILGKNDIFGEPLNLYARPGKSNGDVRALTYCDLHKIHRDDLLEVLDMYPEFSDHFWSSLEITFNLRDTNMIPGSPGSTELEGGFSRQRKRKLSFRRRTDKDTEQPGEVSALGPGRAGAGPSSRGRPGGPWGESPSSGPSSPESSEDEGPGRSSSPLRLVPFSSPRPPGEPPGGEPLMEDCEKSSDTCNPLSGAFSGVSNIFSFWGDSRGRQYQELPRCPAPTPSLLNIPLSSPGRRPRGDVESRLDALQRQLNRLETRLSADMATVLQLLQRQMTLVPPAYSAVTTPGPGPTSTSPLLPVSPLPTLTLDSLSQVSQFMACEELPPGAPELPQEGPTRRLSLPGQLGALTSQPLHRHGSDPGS
# Assay overview: in vitro
# Description: MMV: Malaria Box compounds were tested for inhibition of the human ether a go-go related gene (hERG), Kv11.1 channel, using IonWorks 384-well patch clamp electrophysiology at 1.1uM (3 independent assay plates up to 12 cells per concentration).
Assay metric: inhibition at 1.1 µM (%)
Numbers only, in %.

What inhibition at 1.1 µM appears in the records for this molecule with hERG (Kv11.1, KCNH2) (Homo sapiens, UniProt Q12809)? CC(Oc1ccc(NC(=O)c2cccs2)cc1)C(=O)c1ccc(Cl)cc1 (stereo unspecified)
-4

What inhibition at 1.1 µM appears in the records for this molecule with hERG (Kv11.1, KCNH2) (Homo sapiens, UniProt Q12809)? CCOc1ccccc1NC(=O)CN1CCN(C(=O)c2ccco2)CC1
13

What inhibition at 1.1 µM appears in the records for this molecule with hERG (Kv11.1, KCNH2) (Homo sapiens, UniProt Q12809)? O=c1nc(C=Cc2ccc(Cl)cc2)oc2ccccc12
-5

What inhibition at 1.1 µM appears in the records for this molecule with hERG (Kv11.1, KCNH2) (Homo sapiens, UniProt Q12809)? Cc1cccc(Nc2nc(N)c3ccccc3n2)c1
15

What inhibition at 1.1 µM appears in the records for this molecule with hERG (Kv11.1, KCNH2) (Homo sapiens, UniProt Q12809)? Cc1sc2ncnc(Sc3nc4ccccc4[nH]3)c2c1C
8

What inhibition at 1.1 µM appears in the records for this molecule with hERG (Kv11.1, KCNH2) (Homo sapiens, UniProt Q12809)? CN(C)c1ccc(N=Cc2ccc(N3CCOCC3)cc2)cc1
-6

What inhibition at 1.1 µM appears in the records for this molecule with hERG (Kv11.1, KCNH2) (Homo sapiens, UniProt Q12809)? Cc1ccnc(NC(c2cccc(OCc3ccccc3)c2)c2ccc3cccnc3c2O)c1 (stereo unspecified)
6

What inhibition at 1.1 µM appears in the records for this molecule with hERG (Kv11.1, KCNH2) (Homo sapiens, UniProt Q12809)? OC1CCCCC1C1(NC(=S)Nc2ccccc2)CCCCC1 (stereo unspecified)
26

What inhibition at 1.1 µM appears in the records for this molecule with hERG (Kv11.1, KCNH2) (Homo sapiens, UniProt Q12809)? O=c1cc(NC2CCN(CCCc3ccccc3)CC2)c2cc(Cl)ccc2o1
89

What inhibition at 1.1 µM appears in the records for this molecule with hERG (Kv11.1, KCNH2) (Homo sapiens, UniProt Q12809)? COc1ccccc1N1C(=N)SC(=Cc2ccc(OCc3ccccc3F)cc2)C1=O
18

We now examine a further molecule.
What inhibition at 1.1 µM appears in the records for this molecule with hERG (Kv11.1, KCNH2) (Homo sapiens, UniProt Q12809)? CN1CCN(c2ccc(Nc3c4ccccc4nc4ccccc34)cc2)CC1
24
